biological target: Vascular endothelial growth factor receptor 2 (Homo sapiens); conditions: at 1 µM
Description: Inhibition of human recombinant VEGFR-2 at 1 uM after 50 mins by microtiter plate based luciferase reporter gene assay
A collection of compounds and their measured inhibition
The answer is to be given in %; state only the numeric part.

{"smiles-entry": "O=C(COc1nc2ccccc2nc1/C=C\\c1ccncc1)Nc1ccc(Cl)cc1", "tested-target": "Vascular endothelial growth factor receptor 2 (Homo sapiens)", "result-unit": "%", "inhibition": 37}

Problem: Fill blank: measured inhibition of the compound O=C(Cn1c(=O)c(/C=C\c2ccncc2)nc2ccccc21)Nc1ccc(Cl)c(Cl)c1 is ____.
Solution: 56

Problem: Another: O=C(Cn1c(=O)c(/C=C\c2ccncc2)nc2ccccc21)Nc1ccc(Cl)cc1
Solution: 44

Problem: Another: Cc1nc2ccccc2n(CC(=O)Nc2ccc(Cl)cc2)c1=O
Solution: 19

Problem: Another: O=C(Cn1c(=O)c(/C=C\c2ccncc2)nc2ccccc21)Nc1ccc(F)cc1
Solution: 6

----------
A collection of molecules and their measured inhibition
target: Fibroblast growth factor receptor 1 (Homo sapiens); assay: Inhibition of human recombinant FGFR1 at 1 uM after 50 mins by microtiter plate based luciferase reporter gene assay
The answer is to be given in %; state only the numeric part.

Examples with answers:
{"smiles-entry": "O=C(Cn1c(=O)c(/C=C\\c2ccncc2)nc2ccccc21)Nc1ccc(Cl)cc1", "outcome-measure": "inhibition", "test-result": 5}
{"smiles-entry": "O=C(Cn1c(=O)c(/C=C\\c2ccncc2)nc2ccccc21)Nc1ccc(Cl)c(Cl)c1", "outcome-measure": "inhibition", "test-result": 8}
{"smiles-entry": "Cc1nc2ccccc2n(CC(=O)Nc2ccc(Cl)cc2)c1=O", "outcome-measure": "inhibition", "test-result": 0}
{"smiles-entry": "O=C(COc1nc2ccccc2nc1/C=C\\c1ccncc1)Nc1ccc(Cl)cc1", "outcome-measure": "inhibition", "test-result": 0}

Next molecule, please.
Problem: Fill blank: measured inhibition of the molecule O=C(Cn1c(=O)c(/C=C\c2ccncc2)nc2ccccc21)Nc1ccc(F)cc1 is ____.
Solution: 2

----------
tested on: MCF7; assay: Cytotoxicity against human MCF7 cells assessed as growth inhibition after 24 hrs by MTT assay; format: functional, cell-based; settings: MCF7, 24 h
pIC50: −log10 of the molar value.
A collection of compounds and their measured pIC50

Problem: Fill blank: measured pIC50 of the compound O=C(Cn1c(=O)c(/C=C\c2ccncc2)nc2ccccc21)Nc1ccc(Cl)c(Cl)c1 is ____.
Solution: 4.32

Problem: Another: O=C(Cn1c(=O)c(/C=C\c2ccncc2)nc2ccccc21)Nc1ccc(F)cc1
Solution: 4.31

Problem: Another: COc1cc2nc(/C=C\c3ccncc3)c(=O)n(CC(=O)Nc3ccccc3)c2cc1OC
Solution: < 4.00

Problem: Another: Cc1ccc(NC(=O)COc2nc3ccccc3nc2/C=C\c2ccncc2)cc1
Solution: 4.22

Problem: Another: Cc1ccc(Nc2nccc(N(C)c3ccc4c(C)n(C)nc4c3)n2)cc1S(N)(=O)=O [PAZOPANIB]
Solution: 4.11

Problem: Another: COc1ccc(NC(=O)Cn2c(=O)c(/C=C\c3ccncc3)nc3ccccc32)cc1OC
Solution: < 4.00

----------
A collection of compounds and their measured IC50
system: MCF7; experiment: Cytotoxicity against human MCF7 cells assessed as growth inhibition after 24 hrs by MTT assay; assay type: functional, cell-based; conditions: MCF7, 24 h

Examples with answers:
{"smiles-entry": "Cc1ccccc1NC(=O)Cn1c(=O)c(/C=C\\c2ccncc2)nc2ccccc21", "tested-target": "MCF7", "IC50": "> 100 µM"}
{"smiles-entry": "O=C(COc1nc2ccccc2nc1/C=C\\c1ccncc1)Nc1ccc(Cl)cc1", "tested-target": "MCF7", "IC50": "> 100 µM"}
{"smiles-entry": "O=C(Cn1c(=O)c(/C=C\\c2ccncc2)nc2ccccc21)Nc1ccccc1", "tested-target": "MCF7", "IC50": "> 100 µM"}

Problem: Fill blank: measured IC50 of the compound Cc1nc2ccccc2n(Cc2ccc(NC(=O)c3ccc(Cl)cc3)cc2)c1=O is ____.
Solution: 47.6 µM

Problem: Another: Cc1nc2ccccc2nc1OCC(=O)Nc1ccc(Cl)cc1
Solution: > 100 µM

Problem: Another: Cc1ccc(NC(=O)COc2nc3ccccc3nc2C)cc1
Solution: > 100 µM

Problem: Another: O=C(Cn1c(=O)c(/C=C\c2ccncc2)nc2ccccc21)Nc1ccc(Cl)cc1
Solution: > 100 µM

----------
test system: MCF7; experiment: Cytotoxicity against human MCF7 cells assessed as growth inhibition after 24 hrs by MTT assay; type: functional, cell-based; conditions: MCF7, 24 h
A collection of molecules and their measured IC50

Examples with answers:
{"smiles-entry": "Cc1ccc(C(=O)Nc2ccc(Cn3c(=O)c(C)nc4ccccc43)cc2)cc1", "IC50": "> 100 µM"}
{"smiles-entry": "Cc1nc2ccccc2n(CC(=O)Nc2ccc(F)cc2)c1=O", "IC50": "> 100 µM"}

Next molecule, please.
Problem: Fill blank: measured IC50 of the molecule Cc1nc2ccccc2n(CC(=O)Nc2ccc(Cl)cc2)c1=O is ____.
Solution: > 100 µM
